Value source: patent US20180312588A1

MEASURED_ON: T1, human CD19 (on Raji cells, CD19+ homo sapiens Burkitt's lymphoma) (human, UniProt P15391 20-556)
T1 construct: whole, on cells; also called B-lymphocyte antigen CD19; B4
T1 sequence (looked up): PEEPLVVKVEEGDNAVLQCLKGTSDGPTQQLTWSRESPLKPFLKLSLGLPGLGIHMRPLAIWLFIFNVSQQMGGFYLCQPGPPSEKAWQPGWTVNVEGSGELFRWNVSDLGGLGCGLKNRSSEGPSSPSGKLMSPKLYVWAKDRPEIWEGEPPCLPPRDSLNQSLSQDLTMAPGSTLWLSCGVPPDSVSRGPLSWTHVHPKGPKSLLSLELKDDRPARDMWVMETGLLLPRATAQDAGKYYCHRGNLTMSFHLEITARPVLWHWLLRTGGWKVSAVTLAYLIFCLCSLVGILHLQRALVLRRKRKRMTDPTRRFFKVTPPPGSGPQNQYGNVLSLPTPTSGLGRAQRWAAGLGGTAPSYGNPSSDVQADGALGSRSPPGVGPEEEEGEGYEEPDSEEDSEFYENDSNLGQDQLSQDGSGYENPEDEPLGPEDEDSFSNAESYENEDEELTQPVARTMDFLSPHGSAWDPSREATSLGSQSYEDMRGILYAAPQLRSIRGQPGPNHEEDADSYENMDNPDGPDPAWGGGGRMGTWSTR
PROTOCOL_SUMMARY: flow cytometry titration on Raji cells, anti-His FITC; scFv at log(nM) 3
Kindly state geometric mean (FACS titration) for each of the entries shown.
Just the number, please.

Note geometric mean (FACS titration) for the binder shown: NS-scFv (scFv, leader left out here) scFv: DIQMTQSPSSLSASVGDRVTITCRASQDISKYLNWYQQKPGKAVKLLIYHTSRLHSGVPSRFSGSGSGTDYTLTISSLQPEDIATYFCQQGNTLPYTFGGGTKLEIKGSTSGSGKPGSGEGSTKGQVQLQESGPGLVKPSETLSVTCTVSGVSLPDYGVSWIRQPPGKGLEWLGVIWGSETTYYNSALKSRLTISKDTSKNQVFLKMSSLTAADTAIYYCAKHYYYGGSYAMDYWGQGTLVTVSSHHHHHH
61.9

Quickly give me recorded geometric mean (FACS titration) for SS-scFv (scFv, leader left out here) scFv: DIQMTQSPSFLSASVGDRVTITCRASQDISKYLNWYQQKPDQAPKLLIKHTSRLHSGVPSRFSGSGSGTDFTFTISSLQPEDIATYYCQQGNTLPYTFGQGTKLEIKGSTSGSGKPGSGEGSTKGEVQLVESGGGLVQPGRSLRLSCTASGVSLPDYGVSWVRQPPGKGLEWIGVIWGSETTYYNSALKSRFTISRDNSKNTLYLQMNSLRAEDTAVYYCAKHYYYGGSYAMDYWGQGTLVTVSSHHHHHH
61.7

Give the reported geometric mean (FACS titration) for this binder. JS-scFv (scFv, leader left out here) scFv: DIQMTQSPSSLSASVGDRVTITCRASQDISKYLNWYQQKPDQAPKLLIKHTSRLHSGVPSRFSGSGSGTDYTLTISSLQPEDFATYYCQQGNTLPYTFGQGTKLEIKGSTSGSGKPGSGEGSTKGEVQLVESGGGLVQPGRSLRLSCTASGVSLPDYGVSWIRQPPGKGLEWIGVIWGSETTYYNSALKSRFTISRDNSKNTLYLQMNSLRAEDTAVYYCAKHYYYGGSYAMDYWGQGTLVTVSSHHHHHH
59.7

State its geometric mean (FACS titration) for this binder: AS-scFv (scFv, leader left out here) scFv: DIQMTQSPSTLSASVGDRVTITCRASQDISKYLNWYQQKPDQAPKLLIKHTSRLHSGVPSRFSGSGSGTDFTFTISSLQPEDIATYYCQQGNTLPYTFGQGTKLEIKGSTSGSGKPGSGEGSTKGQVQLQESGPGLVKPSGTLSLTCAVSGVSLPDYGVSWIRQPPGKGLEWIGVIWGSETTYYNSALKSRVTISRDNSKNTLYLQMNSLRAEDTAVYYCAKHYYYGGSYAMDYWGQGTLVTVSSHHHHHH
62.4
